# System: MDA-MB-231
# Assay Comment: Antiproliferative activity against human MDA-MB-231 cells assessed as cell viability rate at 5 uM incubated for 72 hrs by MTT assay relative to control
# Format: functional
// False strictly below 50% in Activity; True otherwise

Query string: For this compound, is measured Activity 50% or higher? `COc1cccc(CC(=O)Nc2ccc(-c3ccnc(N4CCN(C)CC4)c3)cn2)c1`
Result string: True

Query string: For this compound, is measured Activity 50% or higher? `Cc1ccc(CC(=O)Nc2ccc(-c3ccnc(N4CCC(CO)CC4)c3)cn2)cc1`
Result string: True

Query string: For this compound, is measured Activity 50% or higher? `COc1cccc(CC(=O)Nc2ccc(-c3ccnc(N(C)CCO)c3)cn2)c1`
Result string: True

Query string: For this compound, is measured Activity 50% or higher? `Cc1cccc(CC(=O)Nc2ccc(-c3ccnc(N4CCC(CO)CC4)c3)cn2)c1`
Result string: False

Query string: For this compound, is measured Activity 50% or higher? `CC1CCN(c2cc(-c3ccc(NC(=O)Cc4cccc(F)c4)nc3)ccn2)CC1`
Result string: False

Query string: For this compound, is measured Activity 50% or higher? `CC1CCN(c2cc(-c3ccnc(NC(=O)Cc4cccc(F)c4)c3)ccn2)CC1`
Result string: True

Query string: For this compound, is measured Activity 50% or higher? `Cc1cccc(/C=C/C(=O)Nc2ccc(-c3ccnc(N4CCC(CO)CC4)c3)cn2)c1`
Result string: False

Query string: For this compound, is measured Activity 50% or higher? `Cc1cccc(CC(=O)Nc2ccc(-c3ccnc(N4CCN(C)CC4)c3)cn2)c1`
Result string: True

Query string: For this compound, is measured Activity 50% or higher? `COc1ccc(CC(=O)N/N=C/c2c(O)ccc3ccccc23)cc1`
Result string: True

Query string: For this compound, is measured Activity 50% or higher? `CN1CCN(c2cc(-c3ccc(NC(=O)Cc4cccc(F)c4)nc3)ccn2)CC1`
Result string: True

Query string: For this compound, is measured Activity 50% or higher? `O=C(CCc1ccccc1)Nc1cc(-c2ccnc(N3CCC(CO)CC3)c2)ccn1`
Result string: False

Query string: For this compound, is measured Activity 50% or higher? `COc1cccc(CC(=O)Nc2cc(-c3ccnc(N4CCC(C)CC4)c3)ccn2)c1`
Result string: True

Query string: For this compound, is measured Activity 50% or higher? `COc1cccc(CC(=O)Nc2cc(-c3ccnc(N4CCC(CO)CC4)c3)ccn2)c1`
Result string: True

Query string: For this compound, is measured Activity 50% or higher? `COc1cccc(CC(=O)Nc2ccc(-c3ccnc(N4CCC(C)CC4)c3)cn2)c1`
Result string: False

Values compiled from ChEMBL document CHEMBL5321216.
